All values here come from patent US7868026B2.

# system.under.test: CYP3A4 (Homo sapiens, UniProt P08684)
# Sequence (P08684 whole entry): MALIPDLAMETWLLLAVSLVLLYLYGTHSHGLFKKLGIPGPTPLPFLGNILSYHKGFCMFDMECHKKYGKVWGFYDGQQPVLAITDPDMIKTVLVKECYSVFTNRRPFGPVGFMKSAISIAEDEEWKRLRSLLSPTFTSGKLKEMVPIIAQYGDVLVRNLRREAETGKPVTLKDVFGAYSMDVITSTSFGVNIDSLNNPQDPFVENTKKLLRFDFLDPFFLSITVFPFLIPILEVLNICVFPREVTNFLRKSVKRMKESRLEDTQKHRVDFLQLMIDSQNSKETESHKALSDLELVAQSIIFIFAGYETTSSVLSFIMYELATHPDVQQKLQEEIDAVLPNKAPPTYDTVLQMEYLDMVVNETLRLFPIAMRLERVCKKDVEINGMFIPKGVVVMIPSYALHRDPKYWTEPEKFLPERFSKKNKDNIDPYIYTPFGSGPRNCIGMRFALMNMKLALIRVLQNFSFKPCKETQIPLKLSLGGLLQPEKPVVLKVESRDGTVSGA
# assay.summary: Determination of compound Kiapp against recombinant CYP3A4 enzyme (BFC fluorescent substrate)
# Assay type: biochemical
# measurement.context: Baculo. enzyme preparation, read-out: Kiapp (BFC, Baculo.)
# Method: 1. Determination of compound Kiapp A determination of the Kiapp of the compounds of the invention against recombinant CYP3A4 enzyme was performed as follows. The assay was performed in a 100 mM sodium phosphate buffer pH 7.0, 5 mM TCEP and containing 2% dimethylformamide (final concentration) upon addition of substrate and inhibitor. […] The oxidation of the coumarin substrate was recorded by a 96-well plate reader POLARstar (BMG LABTECH, Offenburg, Germany). […]
measurement.name: Ki (nM)
One number for each entry, in nM.

Worked examples, 3 compounds total:
[
  {
    "compound": "CCOc1ccncc1NS(=O)(=O)c1ccccc1C(=O)N(C)Cc1ccc(F)cc1 [Example 142]",
    "value.unit": "nM",
    "reported.value": 111
  },
  {
    "compound": "O=C(NCCOc1ccccc1)c1ccccc1S(=O)(=O)Nc1cccnc1 [Example 56]",
    "value.unit": "nM",
    "reported.value": 340
  },
  {
    "compound": "CN(c1cccnc1)S(=O)(=O)c1ccccc1C(=O)N1CCCC(C)(C)C1 [Example 345]",
    "value.unit": "nM",
    "reported.value": 409
  }
]

Continue with the next compound.
Data point: COc1ccc(CNC(=O)c2ccccc2S(=O)(=O)Nc2cncc(C)c2)cc1 [Example 361] ; Ki = 274

---

# system.under.test: CYP3A4 (Homo sapiens)
# assay.summary: Determination of compound Kiapp against recombinant CYP3A4 enzyme (BFC fluorescent substrate)
# Type: biochemical
# measurement.context: Super. enzyme preparation, read-out: Kiapp (BFC, Super.)
measurement.name: pKi
Give bare numbers, as −log10 of the molar value.

Here is how some compounds turned out for pKi.
[
  {
    "structure.as.smiles": "CCOc1cncc(NS(=O)(=O)c2ccccc2C(=O)NCc2ccc(Cl)c(Cl)c2)c1",
    "system.under.test": "CYP3A4 (Homo sapiens)",
    "reported.value": 8.53
  },
  {
    "structure.as.smiles": "CCOc1ccncc1NS(=O)(=O)c1ccccc1C(=O)NCCC(C)C",
    "system.under.test": "CYP3A4 (Homo sapiens)",
    "reported.value": 7.76
  }
]

I would be grateful if you could provide pKi for each of the following entries.
1. CN(c1cccnc1)S(=O)(=O)c1ccccc1C(=O)N1CCCC(C)(C)C1
2. CC(C)(CN1CCCCC1)NC(=O)c1ccccc1S(=O)(=O)Nc1cccnc1
3. Cc1cncc(NS(=O)(=O)c2ccccc2C(=O)NCCC(C)C)c1

1: 6.87; 2: 6.24; 3: 7.64

---

Task for the reader: assign each of the following compounds its reported pKi.
# system.under.test: CYP3A4 (Homo sapiens, UniProt P08684)
# assay.summary: Determination of compound Kiapp against recombinant CYP3A4 enzyme (BFC fluorescent substrate)
# Type: biochemical
# measurement.context: Super. enzyme preparation, read-out: Kiapp (BFC, Super.)
# Procedure: 1. Determination of compound Kiapp A determination of the Kiapp of the compounds of the invention against recombinant CYP3A4 enzyme was performed as follows. The assay was performed in a 100 mM sodium phosphate buffer pH 7.0, 5 mM TCEP and containing 2% dimethylformamide (final concentration) upon addition of substrate and inhibitor. […] The oxidation of the coumarin substrate was recorded by a 96-well plate reader POLARstar (BMG LABTECH, Offenburg, Germany). […]
Answers are plain numbers, as −log10 of the molar value.

Reference set, count: 4
[
  {
    "structure.as.smiles": "CCCCCNC(=O)c1ccccc1S(=O)(=O)Nc1cncc(C)c1",
    "reported.value": 7.66
  },
  {
    "structure.as.smiles": "CCCCN(C)C(=O)c1ccccc1S(=O)(=O)Nc1cnccc1OC",
    "reported.value": 7.28
  },
  {
    "structure.as.smiles": "COc1cncc(NS(=O)(=O)c2ccccc2C(=O)NC2CCCC2)c1",
    "reported.value": 7.33
  },
  {
    "structure.as.smiles": "COC[C@H](C)NC(=O)c1ccccc1S(=O)(=O)Nc1cncc(OC)c1",
    "reported.value": 7.70
  }
]

Give me pKi for each of these compounds, listed below.
1. CC[C@@H](C)NC(=O)c1ccccc1S(=O)(=O)Nc1cncc(OC)c1
2. COc1cncc(NS(=O)(=O)c2ccc(OCCN3CCOCC3)cc2C(=O)NCc2ccc(F)cc2)c1
3. CCOc1cncc(NS(=O)(=O)c2ccccc2C(=O)NCc2ccc(F)c(F)c2)c1
4. CN(c1cccnc1)S(=O)(=O)c1ccccc1C(=O)NCc1cccc(F)c1
5. CC(C)(O)c1ccc(CNC(=O)c2ccccc2S(=O)(=O)Nc2cccnc2)cc1

[7.26, 7.90, 8.40, 7.52, 6.68]

---

# system.under.test: CYP3A4 (Homo sapiens, UniProt P08684)
# assay.summary: Determination of compound Kiapp against recombinant CYP3A4 enzyme (BFC fluorescent substrate)
# Assay type: biochemical
# measurement.context: Baculo. enzyme preparation, read-out: Kiapp (BFC, Baculo.)
Would you kindly list Ki for each of these compounds?
Answers are plain numbers, in nM.

[
  {
    "compound": "Cc1ccncc1NS(=O)(=O)c1ccccc1C(=O)NCc1ccc(F)c(F)c1 [Example 259]",
    "system.under.test": "CYP3A4 (Homo sapiens, UniProt P08684)",
    "value.unit": "nM",
    "Ki": 135
  }
]

Hi, could you look up Ki for each item in my list?
1. O=C(NCc1ccc(F)cc1)c1ccccc1S(=O)(=O)Nc1cccnc1 [Example 9]
2. CCCN(CC1CC1)C(=O)c1ccccc1S(=O)(=O)Nc1cncc(C)c1 [Example 331]
3. COc1ccncc1NS(=O)(=O)c1ccccc1C(=O)N(C)Cc1cccc(F)c1 [Example 104]

1: 173; 2: 75.2; 3: 141

---

# system.under.test: CYP3A4 (Homo sapiens)
# assay.summary: Determination of IC50 against CYP3A4 by measurement of inhibition of testosterone metabolism (human liver microsomes, 6-β-OH-testosterone by LC-MS/MS)
# Assay type: biochemical
# Parameters: 0.1 mg/mL human liver microsomes
# measurement.context: read-out: IC50 (Testo.)
// boundary case: IC50 equal to 30 nM maps to 0 (no); strictly smaller maps to 1 (yes)

Record excerpt, results attached:
[
  {
    "compound": "COc1cncc(NS(=O)(=O)c2ccccc2C(=O)NCc2ccc(F)c(F)c2)c1",
    "assigned.class": "1 (yes)"
  },
  {
    "compound": "O=C(NCC1CC1)c1ccccc1S(=O)(=O)Nc1cccnc1",
    "assigned.class": "0 (no)"
  },
  {
    "compound": "Cc1cccc(CCNC(=O)c2ccccc2S(=O)(=O)Nc2cccnc2)c1",
    "assigned.class": "1 (yes)"
  }
]

Is the reported IC50 for "CCCCCN(C)C(=O)c1cc(Cl)ccc1S(=O)(=O)Nc1cncc(OC)c1" strictly below 30 nM?
0 (no)

IC50 under 30 nM? Item: CC1CC(C)CN(C(=O)c2ccccc2S(=O)(=O)Nc2cccnc2)C1 (stereo not drawn)
0 (no)

Please state whether IC50 is below 30 nM for "Cc1cncc(NS(=O)(=O)c2ccccc2C(=O)N(C)Cc2ccc(F)c(F)c2)c1"
1 (yes)

Hi there! Is IC50 for "CCOCCNC(=O)c1ccccc1S(=O)(=O)Nc1cncc(OC)c1" below 30 nM, do you know?
0 (no)

Please state whether IC50 is below 30 nM for "CC(C)(O)c1ccc(CNC(=O)c2ccccc2S(=O)(=O)Nc2cccnc2)cc1"
1 (yes)

---

Hi there, I'd appreciate the recorded IC50 for every entry that follows.
# system.under.test: CYP3A4 (Homo sapiens, UniProt P08684)
# assay.summary: Determination of IC50 against CYP3A4 by measurement of inhibition of midazolam metabolism (human liver microsomes, 1-hydroxymidazolam by LC-MS/MS)
# Format: biochemical
# Design: 0.1 mg/mL human liver microsomes
# measurement.context: 2 μM midazolam, 0.1 mg/mL human liver microsomes
One number for each entry, in nM.

Known IC50 results, listed for orientation:
[
  {
    "structure.as.smiles": "COCCN(C(=O)c1ccccc1S(=O)(=O)Nc1cncc(C)c1)C(C)C",
    "system.under.test": "CYP3A4 (Homo sapiens, UniProt P08684)",
    "IC50, nM": 22
  },
  {
    "structure.as.smiles": "COc1cncc(NS(=O)(=O)c2ccccc2C(=O)N[C@@H](C)C(C)(C)C)c1",
    "system.under.test": "CYP3A4 (Homo sapiens, UniProt P08684)",
    "IC50, nM": 10
  }
]

Entry under test: "COc1cncc(NS(=O)(=O)c2ccccc2C(=O)N(C)Cc2ccccc2)c1" . Its IC50 was 15

---

For each record, write down the corresponding IC50.
# system.under.test: CYP3A4 (Homo sapiens, UniProt P08684)
# assay.summary: Determination of IC50 against CYP3A4 by measurement of inhibition of midazolam metabolism (human liver microsomes, 1-hydroxymidazolam by LC-MS/MS)
# Format: biochemical
# Set-up: 0.1 mg/mL human liver microsomes
# measurement.context: 2 μM midazolam, 0.1 mg/mL human liver microsomes
Give bare numbers, in nM.

Worked cases, IC50 given:
[
  {
    "compound": "COc1ccncc1NS(=O)(=O)c1ccccc1C(=O)NCCc1ccccc1OC(F)(F)F",
    "IC50 / nM": 11
  },
  {
    "compound": "COc1ccncc1NS(=O)(=O)c1ccccc1C(=O)NCCOc1ccccc1",
    "IC50 / nM": 29
  }
]

// next entry
Looking up CCOc1cncc(NS(=O)(=O)c2ccccc2C(=O)NC(C)C2CC2)c1 (stereo not shown) , I found its IC50 recorded as 26
